Assay: Cytotoxicity in uninfected MT-4 cells (CellTiter-glo)
Format: cell-based
Conditions: human, read-out: HIV activity and cytotoxicity data CC50
Endpoint name: CC50 at 5 days

// query Given the molecule CCCCCCCCCCCCCCCCOCCCOP(=O)(CO[C@H](C)Cn1cnc2c(N)ncnc21)N[C@@H](C)C(=O)SC(C)C (stereo partly shown) , what is its reported CC50 at 5 days?
// result 3 to 10 µM

// query Given the molecule CC(C)OC(=O)[C@H](C)NP(=S)(CO[C@H](C)Cn1cnc2c(N)ncnc21)Oc1ccccc1 (stereo partly shown) , what is its reported CC50 at 5 days?
// result 3 to 10 µM

// query Given the molecule CC(=O)SCCOP(=O)(CO[C@H](C)Cn1cnc2c(N)ncnc21)OCOC(=O)OC(C)C (stereo partly shown) , what is its reported CC50 at 5 days?
// result 10 to 50 µM

// query Given the molecule CCCCCCCCCCCCCCCCOCCCOP(=O)(CO[C@H](C)Cn1cnc2c(N)ncnc21)OCOC(=O)SC(C)C (stereo partly shown) , what is its reported CC50 at 5 days?
// result > 50 µM

Cited source: patent US11447512B2
